# target_system: 3',5'-cyclic-AMP phosphodiesterase 4B (Homo sapiens)
# Sequence (Q07343 whole entry, the tested form may be a part): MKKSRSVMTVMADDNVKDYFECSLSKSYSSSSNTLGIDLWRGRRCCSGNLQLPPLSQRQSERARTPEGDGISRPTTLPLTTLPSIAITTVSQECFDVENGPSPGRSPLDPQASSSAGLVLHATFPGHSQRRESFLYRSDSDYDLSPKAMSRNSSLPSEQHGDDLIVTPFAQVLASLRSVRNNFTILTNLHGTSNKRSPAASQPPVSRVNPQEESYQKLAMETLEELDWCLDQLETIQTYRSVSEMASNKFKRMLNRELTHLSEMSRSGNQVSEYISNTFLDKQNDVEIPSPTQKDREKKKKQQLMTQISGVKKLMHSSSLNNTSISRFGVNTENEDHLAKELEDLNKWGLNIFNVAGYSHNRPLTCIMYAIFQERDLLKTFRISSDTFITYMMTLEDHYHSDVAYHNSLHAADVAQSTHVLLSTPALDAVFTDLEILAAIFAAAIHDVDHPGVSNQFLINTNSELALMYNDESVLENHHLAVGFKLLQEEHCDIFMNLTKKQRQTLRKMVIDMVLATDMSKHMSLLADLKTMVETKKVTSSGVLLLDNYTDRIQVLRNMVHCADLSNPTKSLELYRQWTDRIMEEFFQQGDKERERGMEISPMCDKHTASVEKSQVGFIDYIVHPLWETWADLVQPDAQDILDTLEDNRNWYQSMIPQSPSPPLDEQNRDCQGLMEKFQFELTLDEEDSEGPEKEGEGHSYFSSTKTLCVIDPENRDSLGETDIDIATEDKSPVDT
# test: Inhibition of human PDE4B catalytic domain
Would you kindly list IC50 for each of these compounds?
Numbers only, in nM.

Here's what some known entries look like.
{"compound": "COc1ccc(C2=NNC(=O)CC2C)c2cc(C(F)(F)F)sc12 (racemic)", "IC50 [nM]": 280}
{"compound": "CCc1cc2c(C3=NNC(=O)CC3C)ccc(OC)n2c1 (racemic)", "IC50 [nM]": 3490}
{"compound": "COc1ccc(C2=NNC(=O)CC2C)c2oc(C(F)(F)F)nc12 (racemic)", "IC50 [nM]": 1010}

Kindly consider the entry below.
Query :: Find the measured IC50 of COc1ccc(C2=NNC(=O)CC2C)c2ccc(C(F)(F)F)nc12 (racemic) and report it.
Result :: 350

====

# target_system: cGMP-inhibited 3',5'-cyclic phosphodiesterase 3A (Homo sapiens)
# Sequence (Q14432 whole entry, the tested form may be a part): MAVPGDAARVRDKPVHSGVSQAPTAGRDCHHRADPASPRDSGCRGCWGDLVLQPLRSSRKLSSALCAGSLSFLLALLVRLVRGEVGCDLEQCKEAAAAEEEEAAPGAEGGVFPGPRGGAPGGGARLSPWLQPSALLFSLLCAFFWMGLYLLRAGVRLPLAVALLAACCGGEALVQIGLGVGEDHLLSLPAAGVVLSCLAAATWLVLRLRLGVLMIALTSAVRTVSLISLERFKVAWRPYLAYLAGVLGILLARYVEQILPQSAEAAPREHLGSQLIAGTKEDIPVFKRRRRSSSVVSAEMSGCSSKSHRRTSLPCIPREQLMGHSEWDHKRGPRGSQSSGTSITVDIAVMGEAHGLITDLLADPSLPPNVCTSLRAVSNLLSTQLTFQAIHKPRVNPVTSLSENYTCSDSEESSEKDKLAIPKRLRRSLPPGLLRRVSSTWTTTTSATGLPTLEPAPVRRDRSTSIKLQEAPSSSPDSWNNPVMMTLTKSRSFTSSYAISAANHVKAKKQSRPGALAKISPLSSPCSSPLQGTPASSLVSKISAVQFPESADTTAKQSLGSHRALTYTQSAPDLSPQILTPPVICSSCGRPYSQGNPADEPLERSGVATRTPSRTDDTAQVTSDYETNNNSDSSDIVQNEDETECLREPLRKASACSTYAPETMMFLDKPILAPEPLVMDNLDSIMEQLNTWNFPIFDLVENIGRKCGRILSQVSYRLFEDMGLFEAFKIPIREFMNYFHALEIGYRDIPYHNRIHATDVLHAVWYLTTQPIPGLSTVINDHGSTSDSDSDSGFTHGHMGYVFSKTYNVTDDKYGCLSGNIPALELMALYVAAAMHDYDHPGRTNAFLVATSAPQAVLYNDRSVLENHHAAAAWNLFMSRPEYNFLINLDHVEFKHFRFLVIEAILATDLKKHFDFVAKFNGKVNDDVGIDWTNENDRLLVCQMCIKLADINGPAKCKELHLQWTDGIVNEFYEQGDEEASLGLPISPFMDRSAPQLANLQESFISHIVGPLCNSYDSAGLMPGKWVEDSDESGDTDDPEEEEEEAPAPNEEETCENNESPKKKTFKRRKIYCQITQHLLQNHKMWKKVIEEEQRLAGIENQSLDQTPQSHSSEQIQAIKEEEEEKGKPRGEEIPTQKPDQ
# test: Inhibition of human PDE3A catalytic domain
property_label: pIC50
Answers are plain numbers, as −log10 of the molar value.

Here's what some known entries look like.
{"compound": "COc1ccc(C2=NNC(=O)CC2C)c2oc(C(F)(F)F)nc12 (racemic)", "pIC50": 5.24}
{"compound": "COc1ccc(C2=NNC(=O)CC2C)c2[nH]c(C(F)(F)F)nc12 (racemic)", "pIC50": 4.65}
{"compound": "CCc1cc2c(C3=NNC(=O)CC3C)ccc(OC)n2c1 (racemic)", "pIC50": 4.68}

Below are some compounds; for each one, tell me its pIC50.
1. COc1ccc(C2=NNC(=O)CC2C)n2cc(C(F)(F)F)nc12 (racemic)
2. COc1ccc(C2=NNC(=O)CC2C)c2ccc(C(F)(F)F)nc12 (racemic)

Result ::
5.84
6.01
